# tested-system: T1, recombinant human GPC1 (human, UniProt P35052 24-530, limits assumed)
# T1 sequence (looked up): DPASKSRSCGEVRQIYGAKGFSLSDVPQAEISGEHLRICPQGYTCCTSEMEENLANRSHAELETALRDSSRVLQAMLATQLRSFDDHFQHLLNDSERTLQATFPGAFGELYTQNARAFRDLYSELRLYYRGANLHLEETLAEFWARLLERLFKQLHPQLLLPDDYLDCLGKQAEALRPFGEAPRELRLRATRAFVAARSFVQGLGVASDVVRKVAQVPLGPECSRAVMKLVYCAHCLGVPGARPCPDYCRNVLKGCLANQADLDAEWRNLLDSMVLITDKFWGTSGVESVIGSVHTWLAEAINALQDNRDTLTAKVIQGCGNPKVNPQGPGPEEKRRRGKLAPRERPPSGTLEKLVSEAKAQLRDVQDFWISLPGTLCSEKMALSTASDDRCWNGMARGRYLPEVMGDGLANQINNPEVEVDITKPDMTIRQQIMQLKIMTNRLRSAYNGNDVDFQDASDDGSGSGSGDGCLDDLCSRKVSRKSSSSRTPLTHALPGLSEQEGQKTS
# test-method-notes: monoclonal phage ELISA on recombinant glypicans

>  <binder>
VH single domain antibody LH2 (phage clone) (VHH, Human VH single domain) VHH: QVQLVQSGGGLVQPGGSLRLSCAASDFYFYSYEVSWVRQAPGKALEWIGYIYYSGSTTYNPSLKSRVTISRDNSKNTLYLQMNTLRAEDTAIYYCAVRDNWNDVDYWGQGTLVTVSS

>  <binding result>
no binding

$$$$
>  <binder>
VH single domain antibody LH6 (phage clone) (VHH, Human VH single domain) VHH: QVQLVQSGGGLVQPGGSLRLSCAASDFYFDDYEMSWVRQAPGKGLEWVSTISGSGGGTYYADSVKGRFTISRDNSKNTLYLQMNTLRAEDTATYYCARGYSYDDSRYFDYWGQGTLVTVSS

>  <binding result>
no binding

$$$$
>  <binder>
VH single domain antibody LH3 (phage clone) (VHH, Human VH single domain) VHH: QVQLVQSGGGLVQPGGSLRLSCAASSFSFADYEMSWVRQAPGKALEWIGRIYTSGSTNYNPSLKSRVTISRDNSKNTLYLQMNTLRAEDTATYYCARGYSGYDGSHYFDYWGQGTLVTVSS

>  <binding result>
binds

$$$$
>  <binder>
VH single domain antibody LH7 (phage clone) (VHH, Human VH single domain) VHH: QVQLVQSGGGLVQPGGSLRLSCAASDFYFYDYEMSWVRQAPGKGLEWIGTVSYSGSTYYNPSLKSRVTISRDNSKNTLYLQMNTLRAEDTAMYYCARGYSYDDSRYFDYWGQGTLVTVSS

>  <binding result>
no binding

$$$$
